Numbers sourced from patent US20190055322A1.

Recorded % inhibition in P3X63 cytotoxicity assay, extract 1/150, one value per entry.
- measured-on: PcrV of P. aeruginosa strain PA103 (on TTSS-induced bacteria) (Pseudomonas aeruginosa strain PA103)
- assay-protocol: cell-based or functional assay
Express your answer as a number followed by its unit.

binder | result
Nanobody 272 (11B09-40GS-10C05) (VHH) EVQLVESGGGLVQAGGSLRLSCAASRLTFNHYNMGWFRQAPGKERERVAEVTWSGDKIYYVDSVKGRFTISRDNTPNPVYLYLQMNSLKPEDTAVYYCATAPRGLPYANGYWGQGTLVTVSSGGGGSGGGGSGGGGSGGGGSGGGGSGGGGSGGGGSGGGGSEVQLVESGGGLVQPGGSLRLSCAASGSIFSINTMGWYRQAPGKQRDLVASITMNQVPNYADSVQGRFTISRDNVRNTVHLQMNAVKPEDTADYFCNAWVRSSGASPYTNYWGQGTLVTVSS | 66%
Nanobody 083 (7C10-40GS-11B09) (VHH) EVQLVESGGGLVQAGGSLRLSCTASGRTLSSYTMGWFRQAPGTEREFVAAMTRSGFNTYYADSVKGRFTISRDSTENTMALQMSSLKPEDTAVYYCTAGRGLTSYRADYWGQGTLVTVSSGGGGSGGGGSGGGGSGGGGSGGGGSGGGGSGGGGSGGGGSEVQLVESGGGLVQAGGSLRLSCAASRLTFNHYNMGWFRQAPGKERERVAEVTWSGDKIYYVDSVKGRFTISRDNTPNPVYLYLQMNSLKPEDTAVYYCATAPRGLPYANGYWGQGTLVTVSS | 61%

Shift focus to the following entry.
Bench note: what % inhibition in P3X63 cytotoxicity assay, extract 1/150 did Nanobody 087 (1E11-40GS-7C10) (VHH) EVQLVESGGGLVQPGGSLRLSCAASGSTRSVNPMAWFRQAPGRQREWVATISRSGYATYADSVKGRFTISGDNAKSSVYLQMNSLKPEDTAVYYCVTGTYWGQGTLVTVSSGGGGSGGGGSGGGGSGGGGSGGGGSGGGGSGGGGSGGGGSEVQLVESGGGLVQAGGSLRLSCTASGRTLSSYTMGWFRQAPGTEREFVAAMTRSGFNTYYADSVKGRFTISRDSTENTMALQMSSLKPEDTAVYYCTAGRGLTSYRADYWGQGTLVTVSS show? 49%
